The reported measurements were obtained from PubChem BioAssay AID2745.

Measured LAP4-GFP fluorescence (kMESF), listed per entry.
Assay: LAP4-GFP modulation potency in yeast, dose response, cell-based, MLPCN hits, flow cytometry (AID 2745);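 also: yeast exposed to compound for three hours at 30 degrees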
Conditions: S. cerevisiae LAP4-GFP reporter, flow cytometry fluorescence; at 33 µM (top of the series)
The source made the active and inactive calls. No rule for the calls is given here.

{"Compound": "Cc1cccc(N=C2NC(=O)/C(=C/C=C/c3ccco3)S2)c1C", "Value": "13.7 kMESF (inactive)"}
{"Compound": "O=S(=O)(/N=C(/Sc1ccccc1)c1ccccc1)c1ccccc1", "Value": "11.4 kMESF (inactive)"}
{"Compound": "COc1ccc(-c2cc3nc4n(c(=O)c3s2)CCC4)cc1", "Value": "3.68 kMESF (inactive)"}

Ask: What measured LAP4-GFP fluorescence (kMESF) goes with O=C(/C=C/c1ccc(Br)cc1)NC(=S)NNC(=O)c1ccco1 ?
Result: 5.87 kMESF (inactive)

Ask: What measured LAP4-GFP fluorescence (kMESF) goes with O=C(/C=C/c1ccccc1Cl)c1ccccc(=O)c1O ?
Result: -5.15 kMESF (inactive)

Ask: What measured LAP4-GFP fluorescence (kMESF) goes with CCCCc1ccc(NC(=O)CC(C)=O)cc1 ?
Result: 3.54 kMESF (inactive)
